Cited source for all entries: patent US20110136862A1

Biological target: reuptake of noradrenaline (NA) in synaptosomes (Rattus norvegicus)
Construct: in synaptosomes as described in WO 97/16451
Sequence (Q63380 1-617): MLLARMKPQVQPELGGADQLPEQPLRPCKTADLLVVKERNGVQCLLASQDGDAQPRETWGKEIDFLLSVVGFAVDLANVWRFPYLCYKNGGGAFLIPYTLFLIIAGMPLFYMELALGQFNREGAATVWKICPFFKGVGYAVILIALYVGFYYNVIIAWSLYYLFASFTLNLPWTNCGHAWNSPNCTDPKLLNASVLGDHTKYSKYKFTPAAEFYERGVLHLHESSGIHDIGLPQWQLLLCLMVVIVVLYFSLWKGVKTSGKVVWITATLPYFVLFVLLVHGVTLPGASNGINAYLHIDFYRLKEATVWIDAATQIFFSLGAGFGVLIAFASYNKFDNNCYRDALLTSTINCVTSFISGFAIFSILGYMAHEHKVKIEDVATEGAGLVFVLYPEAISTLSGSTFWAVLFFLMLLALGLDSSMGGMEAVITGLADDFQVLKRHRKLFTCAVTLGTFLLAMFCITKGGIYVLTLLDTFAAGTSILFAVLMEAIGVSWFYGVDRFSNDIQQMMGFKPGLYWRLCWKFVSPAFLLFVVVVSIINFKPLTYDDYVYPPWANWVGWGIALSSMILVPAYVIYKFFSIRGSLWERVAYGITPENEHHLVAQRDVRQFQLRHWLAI
Experiment: Inhibition of NA reuptake in synaptosomes
Conditions: 3H-NA, read-out: NA-uptake IC50
pIC50: −log10 of the molar value.
Reported pIC50 by item:
QUANTITY KIND: pIC50

[[record]]
chemical_string = "CC1(C)CC(Oc2ccc3ccccc3n2)CC(C)(C)N1"
recorded_result = 7.89

[[record]]
chemical_string = "CC1(C)CC(Oc2ccc3cc(O)ccc3n2)CC(C)(C)N1"
recorded_result = 6.89


====

Target: reuptake of dopamine (DA) in synaptosomes (Rattus norvegicus)
Construct: in synaptosomes as described in WO 97/16451
Sequence (P23977 whole entry): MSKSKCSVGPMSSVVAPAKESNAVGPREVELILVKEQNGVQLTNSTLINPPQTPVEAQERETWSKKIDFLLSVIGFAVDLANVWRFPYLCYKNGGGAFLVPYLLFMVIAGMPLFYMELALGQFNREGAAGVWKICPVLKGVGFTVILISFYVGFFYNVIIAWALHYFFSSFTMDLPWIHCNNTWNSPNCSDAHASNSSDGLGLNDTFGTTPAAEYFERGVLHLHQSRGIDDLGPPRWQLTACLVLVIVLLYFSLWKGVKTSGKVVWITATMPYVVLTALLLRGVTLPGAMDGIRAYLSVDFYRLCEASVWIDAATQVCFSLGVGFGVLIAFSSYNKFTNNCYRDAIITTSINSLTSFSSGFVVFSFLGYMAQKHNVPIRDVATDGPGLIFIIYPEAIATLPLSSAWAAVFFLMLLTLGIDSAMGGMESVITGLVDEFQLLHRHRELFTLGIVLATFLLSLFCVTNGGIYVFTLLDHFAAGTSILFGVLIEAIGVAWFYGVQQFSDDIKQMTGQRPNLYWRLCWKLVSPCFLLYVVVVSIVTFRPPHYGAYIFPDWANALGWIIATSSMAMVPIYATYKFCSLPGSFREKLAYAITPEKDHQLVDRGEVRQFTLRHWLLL
Assay: Inhibition of DA reuptake in synaptosomes
Settings: 3H-DA, read-out: DA-uptake IC50
QUANTITY KIND: IC50 (nM)

[[record]]
chemical_string = "CC1(C)CC(Oc2ccc3cc(O)ccc3n2)CC(C)(C)N1"
quantity_kind = "IC50"
quantity_unit = "nM"
recorded_result = 78

[[record]]
chemical_string = "CC1(C)CC(Oc2ccc3ccccc3n2)CC(C)(C)N1"
quantity_kind = "IC50"
quantity_unit = "nM"
recorded_result = 180

